Target: Phosphatidylinositol 4,5-bisphosphate 3-kinase catalytic subunit beta isoform (Homo sapiens)
Sequence (P42338 whole entry, canonical isoform): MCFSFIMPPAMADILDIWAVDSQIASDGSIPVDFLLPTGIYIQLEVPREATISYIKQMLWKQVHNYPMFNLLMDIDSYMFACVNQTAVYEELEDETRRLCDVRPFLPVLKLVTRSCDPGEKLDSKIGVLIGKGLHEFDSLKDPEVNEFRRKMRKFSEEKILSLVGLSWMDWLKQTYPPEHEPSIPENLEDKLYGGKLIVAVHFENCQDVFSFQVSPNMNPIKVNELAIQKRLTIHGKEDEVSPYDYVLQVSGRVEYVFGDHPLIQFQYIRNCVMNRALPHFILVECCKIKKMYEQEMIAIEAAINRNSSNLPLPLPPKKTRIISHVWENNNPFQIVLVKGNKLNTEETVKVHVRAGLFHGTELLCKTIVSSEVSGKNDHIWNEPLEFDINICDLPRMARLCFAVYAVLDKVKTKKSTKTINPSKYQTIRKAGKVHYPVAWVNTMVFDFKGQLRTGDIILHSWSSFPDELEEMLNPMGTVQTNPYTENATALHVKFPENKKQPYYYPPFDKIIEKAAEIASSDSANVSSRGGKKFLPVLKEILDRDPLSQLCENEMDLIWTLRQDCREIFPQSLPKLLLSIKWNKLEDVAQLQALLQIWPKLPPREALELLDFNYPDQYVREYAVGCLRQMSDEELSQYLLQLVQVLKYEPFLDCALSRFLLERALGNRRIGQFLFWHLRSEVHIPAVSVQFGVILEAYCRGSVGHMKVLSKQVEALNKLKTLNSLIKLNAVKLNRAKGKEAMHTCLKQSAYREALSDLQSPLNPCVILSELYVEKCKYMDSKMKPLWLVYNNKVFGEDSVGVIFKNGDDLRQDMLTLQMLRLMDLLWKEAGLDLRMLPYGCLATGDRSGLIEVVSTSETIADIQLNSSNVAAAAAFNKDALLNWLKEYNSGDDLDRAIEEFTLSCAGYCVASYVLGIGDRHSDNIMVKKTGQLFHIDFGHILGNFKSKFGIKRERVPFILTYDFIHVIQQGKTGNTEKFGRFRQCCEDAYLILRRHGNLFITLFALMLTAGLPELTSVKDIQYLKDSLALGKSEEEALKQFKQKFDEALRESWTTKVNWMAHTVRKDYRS
Assay: Inhibition of PI3Kbeta (unknown origin)

| Item smiles | IC50 [pM] |
| --- | --- |
| Cc1nc2c(N)cc(N3CCOCC3)nn2c1Cc1cccc(F)c1C1CCNCC1 | 500 |

* * *

Target: Calcium-dependent protein kinase 1 (Plasmodium falciparum, UniProt P62344)
Experiment: Inhibition of Plasmodium falciparum CDPK1

| Item smiles | Tested target | Endpoint unit | IC50 |
| --- | --- | --- | --- |
| CCCNc1cnc2ccc(-c3cccc(O)c3)nn12 | Calcium-dependent protein kinase 1 (Plasmodium falciparum, UniProt P62344) | µM | 0.01 |

* * *

Biological target: cAMP and cAMP-inhibited cGMP 3',5'-cyclic phosphodiesterase 10A (Homo sapiens)
Assay: Inhibition of PDE10A2 (unknown origin)
pIC50: −log10 of the molar value.
molecules and their reported pIC50
Quantity kind: pIC50

| Molecule | Quantity kind | Observed |
| --- | --- | --- |
| Cc1nc2c(N3CCOCC3)ccnn2c1-c1ccc(C2(O)CCOCC2)nc1 | pIC50 | 7.57 |
| COCCc1ccc(-c2c(C)nc3c(N4CCOCC4)ccnn23)cn1 [JNJ-42396302] | pIC50 | 7.24 |

* * *

Biological target: Corticotropin-releasing factor receptor 1 (Homo sapiens)
Sequence (P34998 whole entry): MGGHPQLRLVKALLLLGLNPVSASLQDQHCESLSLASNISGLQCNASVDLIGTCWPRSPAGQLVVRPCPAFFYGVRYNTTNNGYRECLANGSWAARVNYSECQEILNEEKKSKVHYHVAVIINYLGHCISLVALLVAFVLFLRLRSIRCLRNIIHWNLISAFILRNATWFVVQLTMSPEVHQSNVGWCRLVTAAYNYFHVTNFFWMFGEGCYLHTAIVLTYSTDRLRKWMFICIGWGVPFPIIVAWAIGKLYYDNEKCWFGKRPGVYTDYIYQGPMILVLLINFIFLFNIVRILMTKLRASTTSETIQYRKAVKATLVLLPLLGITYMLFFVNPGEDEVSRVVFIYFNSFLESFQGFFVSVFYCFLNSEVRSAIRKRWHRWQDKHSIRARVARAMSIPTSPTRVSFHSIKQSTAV
Test: Inhibition of human recombinant CRF1 in HEK cell line incubated for 2 hrs by MicroBeta scintillation counter method
Measured IC50 values are reported for all entries that follow.

| Item smiles | Endpoint unit | IC50 |
| --- | --- | --- |
| CCN(CC)c1cc(C)nn2c(-c3sc4ccc(F)cc4c3C)c(C)nc12 | nM | 120 |
| CCC(CC)c1cc(C)nn2c(-c3sc4ccc(F)cc4c3C)c(C)nc12 | nM | 16.3 |

* * *

Target: Phosphatidylinositol 4,5-bisphosphate 3-kinase catalytic subunit gamma isoform (Homo sapiens, UniProt P48736)
Sequence (P48736 whole entry, canonical isoform): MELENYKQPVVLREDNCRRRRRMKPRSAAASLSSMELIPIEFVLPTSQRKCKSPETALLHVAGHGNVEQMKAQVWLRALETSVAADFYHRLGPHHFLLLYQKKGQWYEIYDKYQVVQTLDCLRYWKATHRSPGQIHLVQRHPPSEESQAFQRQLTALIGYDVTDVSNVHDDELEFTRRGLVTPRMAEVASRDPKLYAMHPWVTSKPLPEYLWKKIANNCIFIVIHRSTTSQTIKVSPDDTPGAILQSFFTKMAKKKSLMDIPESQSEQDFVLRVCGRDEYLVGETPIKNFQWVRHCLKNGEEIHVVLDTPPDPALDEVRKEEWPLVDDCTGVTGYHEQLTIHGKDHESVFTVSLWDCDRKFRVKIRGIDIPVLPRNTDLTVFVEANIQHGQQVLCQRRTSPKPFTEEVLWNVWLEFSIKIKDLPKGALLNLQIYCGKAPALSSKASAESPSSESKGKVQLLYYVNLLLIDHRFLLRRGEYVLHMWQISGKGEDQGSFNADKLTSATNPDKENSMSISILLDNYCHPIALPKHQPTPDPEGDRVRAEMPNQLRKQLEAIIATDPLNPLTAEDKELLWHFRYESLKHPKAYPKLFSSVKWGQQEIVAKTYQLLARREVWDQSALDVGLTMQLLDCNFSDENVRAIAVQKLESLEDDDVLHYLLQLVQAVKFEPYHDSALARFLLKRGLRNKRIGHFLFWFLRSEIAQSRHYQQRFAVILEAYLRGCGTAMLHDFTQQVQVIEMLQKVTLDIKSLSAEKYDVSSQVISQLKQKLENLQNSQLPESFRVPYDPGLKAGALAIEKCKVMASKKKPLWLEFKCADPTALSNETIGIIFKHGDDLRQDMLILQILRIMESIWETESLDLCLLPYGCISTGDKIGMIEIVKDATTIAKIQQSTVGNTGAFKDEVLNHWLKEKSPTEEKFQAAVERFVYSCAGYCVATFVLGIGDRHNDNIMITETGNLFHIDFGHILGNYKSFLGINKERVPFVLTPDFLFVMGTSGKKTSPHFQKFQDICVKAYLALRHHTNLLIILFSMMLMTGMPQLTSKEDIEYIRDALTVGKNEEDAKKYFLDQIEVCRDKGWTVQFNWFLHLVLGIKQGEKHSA
Assay: Inhibition of PI3Kgamma (unknown origin)
Quantity kind: IC50

| Item smiles | Observed |
| --- | --- |
| Cc1nc2c(N)cc(N3CCOCC3)nn2c1Cc1cccc(F)c1C1CCNCC1 | 2010 nM |

* * *

Target: 3',5'-cyclic-AMP phosphodiesterase 4B (Homo sapiens)
Assay: Inhibition of human recombinant PDE4B incubated for 30 mins by Scintillation Proximity Assay

| Item smiles | IC50 / nM |
| --- | --- |
| O=C(NC1CC1)c1nc2cccnn2c1-c1cc(F)c(Cl)c(F)c1 | 1.59 |

* * *

Biological target: Phosphatidylinositol 4,5-bisphosphate 3-kinase catalytic subunit alpha isoform (Homo sapiens, UniProt P42336)
Sequence (P42336 whole entry, canonical isoform): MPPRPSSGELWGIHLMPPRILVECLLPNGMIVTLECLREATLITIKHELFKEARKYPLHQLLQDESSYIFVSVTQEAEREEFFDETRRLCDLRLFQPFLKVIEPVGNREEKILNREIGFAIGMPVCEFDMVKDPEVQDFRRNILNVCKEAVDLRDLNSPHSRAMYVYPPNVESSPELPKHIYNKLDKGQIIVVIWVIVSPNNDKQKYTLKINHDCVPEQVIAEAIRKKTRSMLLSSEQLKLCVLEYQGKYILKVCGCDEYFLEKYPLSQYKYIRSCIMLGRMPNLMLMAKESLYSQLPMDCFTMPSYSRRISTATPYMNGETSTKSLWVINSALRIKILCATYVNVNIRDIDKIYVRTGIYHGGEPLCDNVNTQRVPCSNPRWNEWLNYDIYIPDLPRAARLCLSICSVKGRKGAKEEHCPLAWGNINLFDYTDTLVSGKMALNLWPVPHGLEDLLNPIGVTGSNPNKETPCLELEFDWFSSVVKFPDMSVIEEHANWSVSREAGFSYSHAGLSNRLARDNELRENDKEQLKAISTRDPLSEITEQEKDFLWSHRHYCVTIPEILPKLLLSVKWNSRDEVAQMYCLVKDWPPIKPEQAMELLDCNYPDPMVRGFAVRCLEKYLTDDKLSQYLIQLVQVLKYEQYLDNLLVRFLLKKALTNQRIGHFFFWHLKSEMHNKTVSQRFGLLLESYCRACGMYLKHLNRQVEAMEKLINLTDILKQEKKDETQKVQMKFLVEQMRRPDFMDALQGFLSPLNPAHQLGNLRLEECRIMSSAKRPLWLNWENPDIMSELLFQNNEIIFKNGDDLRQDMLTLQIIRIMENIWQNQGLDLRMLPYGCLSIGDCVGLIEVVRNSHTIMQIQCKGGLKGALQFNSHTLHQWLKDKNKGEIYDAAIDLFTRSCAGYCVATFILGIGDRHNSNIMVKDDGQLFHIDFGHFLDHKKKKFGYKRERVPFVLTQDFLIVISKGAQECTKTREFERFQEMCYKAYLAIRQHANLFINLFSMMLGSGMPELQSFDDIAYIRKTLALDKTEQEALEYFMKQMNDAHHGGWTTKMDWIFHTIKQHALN
Assay: Inhibition of PI3Kalpha (unknown origin)
pIC50: −log10 of the molar value.
This section presents molecules with their documented pIC50 values.

| Molecule | Comparator | pIC50 |
| --- | --- | --- |
| Cc1nc2c(N)cc(N3CCOCC3)nn2c1Cc1cccc(F)c1C1CCNCC1 | = | 5.56 |
| COc1ccc(-c2ccc3nc(C)c(-c4cnc(N)c(C(F)(F)F)c4)n3n2)cc1OC | = | 8.22 |
| CC(Nc1ncnc(N)c1C#N)c1cc2ncc(Cl)n2nc1-c1ccccc1 (centres undefined) | < | 6.00 |
| CC(=O)Nc1cn2nc(-c3cnc(N)c(-c4ccccc4OC(F)(F)F)c3)ccc2n1 | > | 6.00 |

* * *

Target: GABA-A receptor; anion channel
Test: Displacement of [3H]diazepam from GABA-A receptor in rat brain membrane

| Item smiles | IC50 (nM) |
| --- | --- |
| CSc1ccc2nc(-c3ccc4c(c3)COC4)c(CNC(=O)c3ccccc3)n2n1 | 2 |

* * *

Here, each record is paired with measured pIC50 data.
Test: Inhibition of Tau (unknown origin) phosphorylation
pIC50: −log10 of the molar value.
Quantity kind: pIC50

| Molecule | Observed |
| --- | --- |
| O=C(Nc1cccnc1)c1ccnn2cc(-c3ccccc3)nc12 | 6.18 |
| CC1CN(c2ccncc2NC(=O)c2ccnn3cc(-c4ccccc4)nc23)CCO1 (configuration not stated) | 8.04 |

* * *

System: rhinovirus B14
Test: Antiviral activity against Human rhinovirus 14
Format: functional, organism-based
Settings: Rhinovirus B
pIC50: −log10 of the molar value.

| Item smiles | Tested target | pIC50 |
| --- | --- | --- |
| Nc1nc2ccc(/C(=N\O)c3ccccc3)nn2c1-c1ccc(F)cc1 | rhinovirus B14 | 6.82 |
| CC(C)S(=O)(=O)n1c(N)nc2ccc(/C(=N/O)c3ccccc3)cc21 | rhinovirus B14 | 6.85 |

* * *

Target: cAMP and cAMP-inhibited cGMP 3',5'-cyclic phosphodiesterase 10A (Homo sapiens, UniProt Q9Y233)
Sequence (Q9Y233 whole entry): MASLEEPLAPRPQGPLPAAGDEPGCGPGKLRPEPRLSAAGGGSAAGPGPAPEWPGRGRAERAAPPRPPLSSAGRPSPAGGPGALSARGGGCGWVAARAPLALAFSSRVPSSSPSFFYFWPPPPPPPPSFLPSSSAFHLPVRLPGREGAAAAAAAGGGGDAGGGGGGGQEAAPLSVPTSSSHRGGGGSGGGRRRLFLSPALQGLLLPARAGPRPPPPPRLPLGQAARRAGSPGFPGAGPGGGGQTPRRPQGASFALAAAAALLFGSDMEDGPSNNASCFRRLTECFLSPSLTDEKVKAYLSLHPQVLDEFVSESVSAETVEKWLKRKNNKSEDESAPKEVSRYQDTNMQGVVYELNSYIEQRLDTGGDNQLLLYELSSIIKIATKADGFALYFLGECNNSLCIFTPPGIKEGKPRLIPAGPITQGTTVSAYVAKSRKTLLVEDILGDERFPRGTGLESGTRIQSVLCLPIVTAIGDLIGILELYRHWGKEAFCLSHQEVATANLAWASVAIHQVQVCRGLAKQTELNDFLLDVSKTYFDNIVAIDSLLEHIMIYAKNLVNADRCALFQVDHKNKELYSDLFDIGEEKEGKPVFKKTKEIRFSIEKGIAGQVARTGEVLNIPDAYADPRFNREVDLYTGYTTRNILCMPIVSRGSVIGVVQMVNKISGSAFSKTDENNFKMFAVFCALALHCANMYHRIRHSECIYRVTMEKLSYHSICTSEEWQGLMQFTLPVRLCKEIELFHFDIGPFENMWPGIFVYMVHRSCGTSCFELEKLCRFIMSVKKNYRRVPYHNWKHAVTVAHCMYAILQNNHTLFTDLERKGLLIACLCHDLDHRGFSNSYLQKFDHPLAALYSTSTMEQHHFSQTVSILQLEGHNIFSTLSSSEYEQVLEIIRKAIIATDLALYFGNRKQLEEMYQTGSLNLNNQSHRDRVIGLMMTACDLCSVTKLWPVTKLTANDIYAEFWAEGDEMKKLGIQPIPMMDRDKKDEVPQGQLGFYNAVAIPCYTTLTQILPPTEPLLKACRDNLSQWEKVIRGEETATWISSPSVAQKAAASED
Experiment: Inhibition of human recombinant PDE10A expressed in Sf9 cells incubated for 60 mins by scintillation counter analysis
pIC50: −log10 of the molar value.

| Item smiles | pIC50 |
| --- | --- |
| O=C(O)c1ccc(-c2c(CCc3ccc4c(n3)CCCC4)nc3c(N4CCOCC4)ccnn23)cc1 | > 9.00 |

* * *

Target: Corticotropin-releasing factor receptor 2 (Homo sapiens, UniProt Q13324)
Assay: Binding affinity to human recombinant CRF2 in HEK cell line assessed as inhibition constant incubated for 4 to 5 hrs by Scintillation Proximity Assay
pKi: −log10 of the molar value.

| Item smiles | pKi |
| --- | --- |
| CCC(CC)c1cc(C)nn2c(-c3sc(N4CCOCC4)nc3Cl)c(C)nc12 | 4.77 |

Every entry's value here was drawn from ChEMBL document CHEMBL5236558.
